Provenance of the data: patent US20160250307A1

biological target: HLA-A*02 (human); assay: UV-ligand exchange, anti-b2m ELISA; grade: exchange yield >=75%
For each record, write down the corresponding peptide exchange yield.

INPUT: Quick check: peptide exchange yield of YLEPYLKEV ?
OUTPUT: ≥ 75%

INPUT: Quick check: peptide exchange yield of AMGEKSFSV ?
OUTPUT: ≥ 75%

INPUT: Quick check: peptide exchange yield of LLLGERVAL ?
OUTPUT: ≥ 75%

INPUT: Quick check: peptide exchange yield of KIAELLENV ?
OUTPUT: ≥ 75%

INPUT: Quick check: peptide exchange yield of SLSAFLPSL ?
OUTPUT: ≥ 75%

INPUT: Quick check: peptide exchange yield of KLFEEIREI ?
OUTPUT: ≥ 75%

INPUT: Quick check: peptide exchange yield of LLFPHPVNQV ?
OUTPUT: ≥ 75%

INPUT: Quick check: peptide exchange yield of KLAEIVKQV (also called MAPKAPK5-001) ?
OUTPUT: ≥ 75%
